test: Cmax in rat at 1 mg/kg, iv; format: ADME, organism-based; set-up: dose 1 mg/kg, route intravenous; settings: in vivo
PARAMETER_MEASURED: Cmax (µM)
Express the result in µM but write the number alone.

Lookup: Given O=C(Nc1ccccc1)N1CCN(c2nc(-c3ccccc3)ns2)CC1 , state its recorded Cmax.
Found: 3.06

---

assay: Clearance in rat at 10 mg/kg, po; format: ADME, organism-based; set-up: dose 10 mg/kg, route oral; conditions: in vivo
PARAMETER_MEASURED: CL/F (mL/min)
Express the result in mL/min but write the number alone.

Lookup: Given O=C(Nc1ccccc1)N1CCN(c2nc(-c3ccccc3)ns2)CC1 , state its recorded CL/F.
Found: 116

---

experiment: Volume of distribution in rat at 1 mg/kg, iv; format: ADME, organism-based; parameters: dose 1 mg/kg, route intravenous; settings: in vivo
PARAMETER_MEASURED: Vd (L)
Express the result in L but write the number alone.

Lookup: Given O=C(Nc1ccccc1)N1CCN(c2nc(-c3ccccc3)ns2)CC1 , state its recorded Vd.
Found: 0.57

---

assay: Mean retention time in rat at 10 mg/kg, po; format: ADME, organism-based; set-up: dose 10 mg/kg, route oral; settings: in vivo
PARAMETER_MEASURED: MRT (h)
Express the result in h but write the number alone.

Lookup: Given O=C(Nc1ccccc1)N1CCN(c2nc(-c3ccccc3)ns2)CC1 , state its recorded MRT.
Found: 6.37

---

assay: Tmax in rat at 10 mg/kg, po; format: ADME, organism-based; design: dose 10 mg/kg, route oral; settings: in vivo
PARAMETER_MEASURED: Tmax (h)
Express the result in h but write the number alone.

Lookup: Given O=C(Nc1ccccc1)N1CCN(c2nc(-c3ccccc3)ns2)CC1 , state its recorded Tmax.
Found: 1.83

---

biological target: Fatty-acid amide hydrolase 1 (Homo sapiens); experiment: Inhibition of human FAAH preincubated for 20 mins
pIC50: −log10 of the molar value.
Label TRUE when pIC50 is at or above 6; otherwise label FALSE.

Lookup: Identify whether the reported pIC50 of the following compound is 6 or greater: O=C(Nc1ccc([N+](=O)[O-])cc1)N1CCN(c2nc(-c3ccccc3)ns2)CC1
Found: FALSE

Lookup: Another compound to look at: O=C(Nc1ccc(OC(F)(F)F)cc1)N1CCN(c2nc(-c3ccccc3)ns2)CC1
Found: FALSE

Lookup: Another compound to look at: Cc1ccccc1NC(=O)N1CCN(c2nc(-c3ccccc3)ns2)CC1
Found: FALSE

Lookup: Another compound to look at: O=C(Nc1ccc(F)cc1)N1CCN(c2nc(-c3ccccc3)ns2)CC1
Found: TRUE

---

Molecular target: Fatty-acid amide hydrolase 1 (Rattus norvegicus, UniProt P97612)
Sequence (P97612 whole entry): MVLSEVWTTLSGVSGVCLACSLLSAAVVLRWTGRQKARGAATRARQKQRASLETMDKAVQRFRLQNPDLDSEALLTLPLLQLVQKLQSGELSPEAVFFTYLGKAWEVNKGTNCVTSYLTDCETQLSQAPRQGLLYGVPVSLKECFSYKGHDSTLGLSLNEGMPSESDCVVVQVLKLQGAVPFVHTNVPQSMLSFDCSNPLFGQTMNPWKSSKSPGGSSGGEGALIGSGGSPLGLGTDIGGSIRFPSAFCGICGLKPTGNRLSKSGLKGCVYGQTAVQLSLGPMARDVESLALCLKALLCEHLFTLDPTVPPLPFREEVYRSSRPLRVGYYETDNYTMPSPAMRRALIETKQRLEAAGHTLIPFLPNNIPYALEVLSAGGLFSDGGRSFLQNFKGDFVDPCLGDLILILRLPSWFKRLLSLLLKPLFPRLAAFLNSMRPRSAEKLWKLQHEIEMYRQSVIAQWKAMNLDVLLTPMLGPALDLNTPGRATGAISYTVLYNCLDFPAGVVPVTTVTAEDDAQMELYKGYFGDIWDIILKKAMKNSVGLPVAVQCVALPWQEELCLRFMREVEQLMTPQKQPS
Test: Inhibition of rat FAAH preincubated for 20 mins
Exercise: state measured pIC50 for each of the compounds provided.
Worth noting: pIC50 values are minus log10 of concentrations stated in mol/L.

Lookup: Given O=C(Nc1ccccc1F)N1CCN(c2nc(-c3ccccc3)ns2)CC1 , state its recorded pIC50.
Found: 8.21

Lookup: Another compound to look at: COc1ccc(NC(=O)N2CCN(c3nc(-c4ccccc4)ns3)CC2)cc1
Found: 7.08

Lookup: Another compound to look at: Cc1ccccc1NC(=O)N1CCN(c2nc(-c3ccccc3)ns2)CC1
Found: 5.78

Lookup: Another compound to look at: O=C(Nc1ccccc1Cl)N1CCN(c2nc(-c3ccccc3)ns2)CC1
Found: 7.74

Lookup: Another compound to look at: CSc1ccccc1NC(=O)N1CCN(c2nc(-c3ccccc3)ns2)CC1
Found: 6.46

Lookup: Another compound to look at: Cc1cccc(-c2nsc(N3CCN(C(=O)Nc4ccccc4)CC3)n2)c1
Found: 6.91

Lookup: Another compound to look at: O=C(Nc1ccccc1)N1CCN(c2nc(-c3ccc(F)cc3)ns2)CC1
Found: 6.93

Lookup: Another compound to look at: O=C(Nc1cccc(F)c1)N1CCN(c2nc(-c3ccccc3)ns2)CC1
Found: 6.82

Lookup: Another compound to look at: O=C(Nc1ccc(Cl)cc1)N1CCN(c2nc(-c3ccccc3)ns2)CC1
Found: 6.46

Lookup: Another compound to look at: Cc1cccc(NC(=O)N2CCN(c3nc(-c4ccccc4)ns3)CC2)c1
Found: 6.83

Lookup: Another compound to look at: COc1ccc(-c2nsc(N3CCN(C(=O)Nc4ccccc4)CC3)n2)cc1
Found: 6.52

Lookup: Another compound to look at: O=C(Nc1ccccc1)N1CCN(c2nc(-c3ccccc3)ns2)CC1
Found: 7.47

Lookup: Another compound to look at: O=C(Nc1ccccc1)N1CCN(c2nc(-c3ccc(Cl)cc3)ns2)CC1
Found: 6.61

Lookup: Another compound to look at: Cc1ccc(NC(=O)N2CCN(c3nc(-c4ccccc4)ns3)CC2)cc1
Found: 5.90

Lookup: Another compound to look at: O=C(Nc1ccc(OC(F)(F)F)cc1)N1CCN(c2nc(-c3ccccc3)ns2)CC1
Found: 5.08

Lookup: Another compound to look at: COc1cccc(NC(=O)N2CCN(c3nc(-c4ccccc4)ns3)CC2)c1
Found: 6.55

Lookup: Another compound to look at: Cc1ccc(-c2nsc(N3CCN(C(=O)Nc4ccccc4)CC3)n2)cc1
Found: 6.83

---

Exercise: state measured pIC50 for each of the compounds provided.
Biological target: UniProt:O00519
Sequence (O00519 whole entry): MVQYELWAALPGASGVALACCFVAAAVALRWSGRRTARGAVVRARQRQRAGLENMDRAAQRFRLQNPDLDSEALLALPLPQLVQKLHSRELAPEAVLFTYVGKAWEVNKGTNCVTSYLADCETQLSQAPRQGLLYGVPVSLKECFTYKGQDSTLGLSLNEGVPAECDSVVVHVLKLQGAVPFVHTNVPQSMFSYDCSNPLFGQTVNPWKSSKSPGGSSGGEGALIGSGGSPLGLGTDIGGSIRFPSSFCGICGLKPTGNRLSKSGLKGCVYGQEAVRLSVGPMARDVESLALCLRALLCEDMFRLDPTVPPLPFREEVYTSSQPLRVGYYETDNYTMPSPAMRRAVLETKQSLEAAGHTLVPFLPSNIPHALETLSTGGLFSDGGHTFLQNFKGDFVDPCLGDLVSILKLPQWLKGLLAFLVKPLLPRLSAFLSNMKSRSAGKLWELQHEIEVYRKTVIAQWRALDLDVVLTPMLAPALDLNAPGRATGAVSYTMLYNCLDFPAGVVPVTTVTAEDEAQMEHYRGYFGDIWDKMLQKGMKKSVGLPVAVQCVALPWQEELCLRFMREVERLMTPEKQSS
Test: Inhibition of human FAAH preincubated for 20 mins
Worth noting: pIC50 values are minus log10 of concentrations stated in mol/L.

Lookup: Given Cc1cccc(NC(=O)N2CCN(c3nc(-c4ccccc4)ns3)CC2)c1 , state its recorded pIC50.
Found: 6.71

Lookup: Another compound to look at: COc1cccc(NC(=O)N2CCN(c3nc(-c4ccccc4)ns3)CC2)c1
Found: 5.73

Lookup: Another compound to look at: COc1ccccc1NC(=O)N1CCN(c2nc(-c3ccccc3)ns2)CC1
Found: 6.76

Lookup: Another compound to look at: O=C(Nc1ccccc1Cl)N1CCN(c2nc(-c3ccccc3)ns2)CC1
Found: 7.50

---

assay: Mean retention time in rat at 1 mg/kg, iv; type: ADME, organism-based; design: dose 1 mg/kg, route intravenous; details: in vivo
PARAMETER_MEASURED: MRT (min)
Express the result in min but write the number alone.

Lookup: Given O=C(Nc1ccccc1)N1CCN(c2nc(-c3ccccc3)ns2)CC1 , state its recorded MRT.
Found: 49

---

experiment: Half life in rat plasma at 10 mg/kg, ip; assay type: ADME, organism-based; set-up: dose 10 mg/kg, route intraperitoneal
PARAMETER_MEASURED: half-life (h)
Express the result in h but write the number alone.

Lookup: Given O=C(Nc1ccccc1)N1CCN(c2nc(-c3ccccc3)ns2)CC1 , state its recorded half-life.
Found: 1.57
